Test system: Wolbachia pipientis
Experiment: Anti-Wolbachia Cell-Based Screen
Assay type: functional
Set-up: scale not given: in the data most compounds retested in dose-response had high values
Settings: 5 µM
The whole screen tested about 48,000 compounds, of which about 13,000 (27%) showed an effect of 50% or more. The list shows a part of the results.
Please provide measured Percent Effect for the entries that follow.
Answers are plain numbers, in %.

# count of solved cases: 2
(Q) Which value of Percent Effect has been reported for CC(Cc1cnccn1)NC(=O)COc1ccc(F)cc1F (centres undefined) in the records?
(A) 0.5787

(Q) Can you look up the measured Percent Effect of `Cc1cc(C(=O)N[C@H]2CC[C@@]3(CCC(=O)N3)CC2)no1` for me?
(A) -22.87

Lab note: each compound below needs its Percent Effect filled in.
1. O=C1CC[C@H]2CN(c3ncc(F)cn3)CC[C@H]2N1CCc1ccccn1
2. CSc1nccc(N2CCN(C)C3(CCC(=O)N(CC4CC4)CC3)C2)n1 (centres undefined)
3. CCNC(=O)CN1CCOC(c2ccccc2C(F)(F)F)C1 (centres undefined)
4. COc1ccc2nc(C[C@@H]3C[C@@H](C(C)C)[C@H](CN)C=C3C)[nH]c2n1
5. CCNC(=O)NC(=O)CN1CCC(c2c[nH]c3ccc(OC)cc23)CC1
6. CCN(Cc1ccncc1)C1CCCN(C/C=C/c2ccc(F)cc2)C1 (centres undefined)

(A)
[-8.563, -14.1, -9.523, 16.51, -12.44, 3.422]

Look at each compound and report its Percent Effect.
1. COc1ccc(CN2C[C@@H]3CN(Cc4ccncc4)C[C@@H]3C2=O)cc1.O=C(O)C(F)(F)F.O=C(O)C(F)(F)F
2. O=C(O)CC(O)(CC(=O)O)C(=O)O.c1ccc(CC2CCN(Cc3ccnc(-c4cccnc4)n3)CC2)cc1
3. N#CCCCS(=O)(=O)NC1(c2cccc(Br)c2)CC1
4. COC(=O)NCCCC(=O)NC1(c2cccc(Cl)c2)CC1
5. O=C(C1CCC2(CCN(c3nncs3)CC2)CO1)N1CCCC1.O=C(O)C(F)(F)F (centres undefined)
6. Cc1cnc(C(=O)NCc2ccc3c(c2)CCCN3C)cn1
7. CS(=O)(=O)CCCNC1(c2cccc(Cl)c2)CCCC1
8. CC(C)CN1CCCn2nc(CNC(=O)c3cccnc3O)cc2C1

(A)
1: -12.53; 2: 2.968; 3: 115.6; 4: -10.63; 5: -6.023; 6: 101.2; 7: -3.433; 8: -4.035

Your task in this section: give Percent Effect for each listed record.
1. CCc1oc(C(=O)NCCNS(C)(=O)=O)cc1CN1CCCC1
2. CC(SCc1cc(Br)cc2cccnc12)C(N)=O (centres undefined)
3. Cc1csc(C2(NCC(O)COc3ccc(F)cc3)CCC2)n1 (centres undefined)
4. O=C1NCCCCC1NS(=O)(=O)N1CCCCCC1 (centres undefined)
5. Cc1ccc(CN2CCC[C@]3(C(=O)O)CN(c4ncccn4)C[C@@H]3C2)o1.O=C(O)C(F)(F)F
6. CCc1oc(C(=O)NCCc2cc(O)nc(C)n2)cc1CN1CCCC1
7. COc1ccc([C@@H]2CN(Cc3ccncc3)C[C@H]2c2cc[nH]n2)cc1.O=C(O)CC(O)(CC(=O)O)C(=O)O

(A)
20.77
-22.01
-11.72
41.49
-9.127
-0.3531
69.64
